Each entry below carries its recorded koff.
# measuredTarget: T1, shFcRn (soluble human FcRn) (human, UniProt P55899 24-297; P61769 21-119)
# T1 construct: extracellular domain; Printed only as 'soluble human FcRn'; also called hFcRn (immobilized on a chip)
# T1 sequence (P55899 24-297 limits assumed, chain 1 of 2): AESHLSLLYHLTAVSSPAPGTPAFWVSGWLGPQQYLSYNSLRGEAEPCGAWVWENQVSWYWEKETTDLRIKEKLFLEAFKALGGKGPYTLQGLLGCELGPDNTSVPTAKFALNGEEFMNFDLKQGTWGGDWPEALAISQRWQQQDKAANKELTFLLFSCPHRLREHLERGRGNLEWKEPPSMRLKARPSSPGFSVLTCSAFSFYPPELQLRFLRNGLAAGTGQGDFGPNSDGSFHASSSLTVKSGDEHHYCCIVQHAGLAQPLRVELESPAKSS
# T1 sequence (P61769 21-119 limits assumed, chain 2 of 2): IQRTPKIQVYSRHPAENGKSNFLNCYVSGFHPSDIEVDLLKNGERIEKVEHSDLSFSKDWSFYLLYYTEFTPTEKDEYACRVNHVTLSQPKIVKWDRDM
# runDescription: SPR, shFcRn immobilized on chip, antibody as analyte, pH 6.0;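 note: kinetics fitted with a 1:1 Langmuir model, association 200 s and dissociation 600 s, samples diluted in PBST, double-referenced signals, values averaged across three shFcRn-coated cells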
Numbers only here, please. The scale is s⁻¹.

Worked cases, koff given:
binder	unitAnnotation	reported
HL161AN variant No. 21 (LC:N25Q, HC:C32Y Q82T) (antibody, human IgG1, V domains shown, Variable domains only) VL: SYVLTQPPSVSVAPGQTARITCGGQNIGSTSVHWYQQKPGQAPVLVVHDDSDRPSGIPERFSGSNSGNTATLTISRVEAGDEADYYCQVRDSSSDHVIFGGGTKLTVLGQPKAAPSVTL VH: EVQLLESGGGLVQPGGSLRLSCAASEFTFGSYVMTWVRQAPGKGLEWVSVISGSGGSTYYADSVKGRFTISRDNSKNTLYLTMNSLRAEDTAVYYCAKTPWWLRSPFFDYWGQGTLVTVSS	s⁻¹	0.000552
HL161AN variant No. 10 (LC:N25S, HC:C32Y Q82T) (antibody, human IgG1, V domains shown, Variable domains only) VL: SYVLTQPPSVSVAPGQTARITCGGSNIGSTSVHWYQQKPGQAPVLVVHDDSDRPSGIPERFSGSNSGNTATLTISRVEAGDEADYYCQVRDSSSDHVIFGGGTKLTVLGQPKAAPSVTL VH: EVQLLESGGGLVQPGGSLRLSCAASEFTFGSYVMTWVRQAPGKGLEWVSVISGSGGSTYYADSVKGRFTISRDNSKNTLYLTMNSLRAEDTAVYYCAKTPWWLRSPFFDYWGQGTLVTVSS	s⁻¹	0.000573
HL161AN variant No. 14 (LC:N25Q, HC:Q82S) (antibody, human IgG1, V domains shown, Variable domains only) VL: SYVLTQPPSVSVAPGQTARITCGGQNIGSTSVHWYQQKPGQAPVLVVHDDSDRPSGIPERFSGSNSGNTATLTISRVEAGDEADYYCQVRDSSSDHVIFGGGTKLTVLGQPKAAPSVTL VH: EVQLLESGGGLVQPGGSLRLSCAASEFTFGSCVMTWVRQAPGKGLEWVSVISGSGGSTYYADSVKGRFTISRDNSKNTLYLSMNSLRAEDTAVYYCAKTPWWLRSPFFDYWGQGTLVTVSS	s⁻¹	0.000558

Record HL161AN variant No. 1 (LC:N25S, HC:C32S) (antibody, V domains shown, also called HL161ANS; #1 (HL161ANS)) VL: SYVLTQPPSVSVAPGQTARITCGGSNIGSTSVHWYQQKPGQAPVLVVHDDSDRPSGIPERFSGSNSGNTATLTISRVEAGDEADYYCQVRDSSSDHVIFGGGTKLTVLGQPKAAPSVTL VH: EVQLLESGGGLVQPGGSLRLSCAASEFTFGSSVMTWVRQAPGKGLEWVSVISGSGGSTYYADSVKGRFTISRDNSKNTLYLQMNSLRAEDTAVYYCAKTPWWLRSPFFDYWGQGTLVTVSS . Reported koff: 0.000463
